Measured values drawn from paper PMC4191400 for this set.

molecular target: WT RT–T/P complex (Human immunodeficiency virus type 1 group M subtype B); construct: asymmetric heterodimer composed of a 66-kDa (p66) subunit and a p66-derived 51-kDa (p51) subunit; experiment: biochemical; conditions: fluorescence anisotropy, 5 nM T/P, read-out: Kd, NNRTI binding to the RT–T/P complex
RECORDED METRIC: pKd
Scale note: pKd = -log10(concentration in M).

// lookup pKd for Cc1cc(/C=C/C#N)cc(C)c1Nc1ccnc(Nc2ccc(C#N)cc2)n1
7.08

###

system: K101R/E138D/K103N HIV-1; assay: HIV-1 drug susceptibility assay, K101R/E138D/K103N virus; type: cell-based; details: Human immunodeficiency virus 1, head: P4/R5 cells, footnote: TZM-bl cells, mean ± SD, read-out: EC50, inhibition of HIV-1 replication
RECORDED METRIC: EC50 (nM)
Respond with the bare value in nM.

// lookup EC50 for O=C1Nc2ccc(Cl)cc2[C@@](C#CC2CC2)(C(F)(F)F)O1
15.9

// lookup EC50 for Cc1cc(/C=C/C#N)cc(C)c1Nc1ccnc(Nc2ccc(C#N)cc2)n1
0.12

###

biological target: K101R/E138D HIV-1 RT (Human immunodeficiency virus type 1 group M subtype B, UniProt P04585, E725D/K688R); construct: asymmetric heterodimer composed of a 66-kDa (p66) subunit and a p66-derived 51-kDa (p51) subunit; test: Inhibition of RT RNA-dependent DNA polymerase activity, K101R/E138D RT; conditions: mean ± SD
RECORDED METRIC: IC50
Kindly report the value followed by its unit.

// lookup IC50 for Cc1cc(/C=C/C#N)cc(C)c1Nc1ccnc(Nc2ccc(C#N)cc2)n1
11.2 nM

###

target: E138D HIV-1 RT (Human immunodeficiency virus type 1 group M subtype B, UniProt P04585, E725D); construct: asymmetric heterodimer composed of a 66-kDa (p66) subunit and a p66-derived 51-kDa (p51) subunit; experiment: Inhibition of RT RNA-dependent DNA polymerase activity, E138D RT; conditions: mean ± SD
RECORDED METRIC: IC50 (nM)
Respond with the bare value in nM.

// lookup IC50 for Cc1cc(/C=C/C#N)cc(C)c1Nc1ccnc(Nc2ccc(C#N)cc2)n1
8.3

###

target: K101R HIV-1 RT (Human immunodeficiency virus type 1 group M subtype B, UniProt P04585, K688R); construct: asymmetric heterodimer composed of a 66-kDa (p66) subunit and a p66-derived 51-kDa (p51) subunit; made in house; assay: Inhibition of RT RNA-dependent DNA polymerase activity, K101R RT; type: biochemical; details: mean ± SD
RECORDED METRIC: IC50 (nM)
Respond with the bare value in nM.

// lookup IC50 for Cc1cc(/C=C/C#N)cc(C)c1Nc1ccnc(Nc2ccc(C#N)cc2)n1
15.5
